src = ChEMBL document CHEMBL5724696

system: TERT-RPE1; assay: Here: values are normalized to the negative (DMSO; defined as 0% autophagy induction) and positive (250nM Torin1; mTOR inhibitor; defined as maximal inducer of autophagy = 100%) control compounds and represented as % of autophagy induction. […] The impact of autophagy induction on cells is complex and depends on the affected target. As such, the magnitude of a phenotype may not be equally mirrored in the %-value of autophagy induction and vice versa. The dynamics of the induction may indicate the mode of activation: e.g. activation via phosphorylation or a signaling cascade may occur fast, while activation via transcription factors may take considerably longer. […] Of note, treatment concentrations may be sub-optimal for specific compounds, leading to false negative annotations.; assay type: functional, Homo sapiens; conditions: Compound Concentration 1 uM, Timepoint 12 hours, Culturing Media DMEM/F12 (1:1), 1 % Penicillin/Streptomycin, 10% Fetal bovin serum Add-On: No, Screening Media Control DMEM/F12 (1:1), Screening Media Samples DMEM/F12 (1:1)
Parameter: autophagy induction. Scope: all listed entries.
Your answer is read as %, so omit the unit and give the number.

Sample answers from the record:
- COMPOUND: "COC(=O)/C=C/c1cccc(N(Cc2ccc(-c3ccc(N(C)C)cc3)cc2)C(=O)C2CCCCC2)c1"
  autophagy induction / %: -11.8732
- COMPOUND: "CC(=O)Oc1ccc2c(c1)[C@@]1(C)CCC[C@](C)(C(=O)OC(=O)[C@@]3(C)CCC[C@]4(C)c5cc(OC(C)=O)ccc5CC[C@@H]34)[C@@H]1CC2 [ACETYL PODOCARPIC ACID ANHYDRIDE]"
  autophagy induction / %: -1.145
- COMPOUND: "COC(=O)c1sccc1S(=O)(=O)Nc1ccc(Nc2ccccc2)cc1OC"
  autophagy induction / %: -12.2106
- COMPOUND: "CC(C=CC1=C(C)CCCC1(C)C)=CC=CC(C)=CC(=O)O"
  autophagy induction / %: -29.8215

Form: Entry = CCOP(=O)(OCC)C(=Cc1cc(C(C)(C)C)c(O)c(C(C)(C)C)c1)P(=O)(OCC)OCC | System = TERT-RPE1 | autophagy induction = ____
-14.535

Form: Entry = CC(C)C(=O)N1CCC(c2cn(C)c3ncc(NC(=O)c4cccc(C#N)c4)c(C(F)(F)F)c23)CC1 | System = TERT-RPE1 | autophagy induction = ____
-17.3669

Form: Entry = C=C1/C(=C\C=C2/CCC[C@]3(C)[C@@H]([C@H](C)/C=C/C=C/C(O)(CC)CC)CC[C@@H]23)C[C@@H](O)C[C@@H]1O | System = TERT-RPE1 | autophagy induction = ____
1.435

Form: Entry = CCCCCNC(=O)N1CCC(CN(Cc2ccc(Cl)cc2)Cc2ccc([N+](=O)[O-])s2)C1 (stereo unspecified) | System = TERT-RPE1 | autophagy induction = ____
-13.327

Form: Entry = O=C(O)Cc1cc(I)c(Oc2ccc(O)c(I)c2)c(I)c1 | System = TERT-RPE1 | autophagy induction = ____
-9.01

Form: Entry = Cc1cc(SCc2sc(-c3ccc(C(F)(F)F)cc3)nc2C)ccc1OCC(=O)O | System = TERT-RPE1 | autophagy induction = ____
35.2172

Form: Entry = CC(C)(O)c1cn(-c2ccc(-c3cccc(S(C)(=O)=O)c3)cc2)c(C(C)(C)c2ccccc2Cl)n1 | System = TERT-RPE1 | autophagy induction = ____
-11.1228

Form: Entry = CN(CCOc1ccc(CC2SC(=O)NC2=O)cc1)c1ccccn1 (stereo unspecified) | System = TERT-RPE1 | autophagy induction = ____
-11.8893

Form: Entry = O=C(O)c1ccc2cc(-c3ccc(O)c(C45CC6CC(CC(C6)C4)C5)c3)ccc2c1 | System = TERT-RPE1 | autophagy induction = ____
-7.665

Form: Entry = COC(=O)C(Cc1ccc(OCCn2c(=O)sc3cc(C(=O)c4ccccc4)ccc32)cc1)C(=O)OC | System = TERT-RPE1 | autophagy induction = ____
-14.8184

Form: Entry = O=C(O)c1cc(F)c2nc(N3[C@@H]4CC[C@H]3C[C@@H](OCc3c(-c5ccccc5OC(F)(F)F)noc3C3CC3)C4)sc2c1 [TROPIFEXOR] | System = TERT-RPE1 | autophagy induction = ____
-16.0144

Form: Entry = CCCCCCCN(CCc1ccc(SC(C)(C)C(=O)O)cc1)C(=O)Nc1ccc(F)cc1F | System = TERT-RPE1 | autophagy induction = ____
-3.328

Form: Entry = CC[C@H]1[C@@H](O)[C@@H]2[C@H](CC[C@]3(C)[C@@H]([C@H](C)CCC(=O)O)CC[C@@H]23)[C@@]2(C)CC[C@@H](O)C[C@@H]12 | System = TERT-RPE1 | autophagy induction = ____
-8.507

Form: Entry = CCO[C@@H](Cc1ccc(OCCc2ccc(OS(C)(=O)=O)cc2)cc1)C(=O)O | System = TERT-RPE1 | autophagy induction = ____
-2.81

----------
system: TERT-RPE1; assay: Here: values are normalized to the negative (DMSO; defined as 0% autophagy induction) and positive (250nM Torin1; mTOR inhibitor; defined as maximal inducer of autophagy = 100%) control compounds and represented as % of autophagy induction. […] The impact of autophagy induction on cells is complex and depends on the affected target. As such, the magnitude of a phenotype may not be equally mirrored in the %-value of autophagy induction and vice versa. The dynamics of the induction may indicate the mode of activation: e.g. activation via phosphorylation or a signaling cascade may occur fast, while activation via transcription factors may take considerably longer. […] Of note, treatment concentrations may be sub-optimal for specific compounds, leading to false negative annotations.; assay type: functional, Homo sapiens; conditions: Compound Concentration 2 uM, Timepoint 24 hours, Culturing Media DMEM/F12 (1:1), 1 % Penicillin/Streptomycin, 10% Fetal bovin serum Add-On: No, Screening Media Control DMEM/F12 (1:1), Screening Media Samples DMEM/F12 (1:1)
ENDPOINT_NAME: autophagy induction (%)
Your answer is read as %, so omit the unit and give the number.

- MOLECULE: "C[C@H](Cc1cc2c(c(C(N)=O)c1)N(CCCO)CC2)NCCOc1ccccc1OCC(F)(F)F [SILODOSIN]"
  autophagy induction (%): -5.97
- MOLECULE: "O=C(O)C1CN(Cc2ccc(OCc3ccc(Cl)c(Cl)c3)cc2)C1"
  autophagy induction (%): -8.149

Tell me the measured autophagy induction of CNc1nc(NCc2ccc(NS(C)(=O)=O)cc2Cl)cc(-c2ccccn2)n1 , please.
-3.372

----------
system: TERT-RPE1; test: Here: values are normalized to the negative (DMSO; defined as 0% autophagy induction) and positive (250nM Torin1; mTOR inhibitor; defined as maximal inducer of autophagy = 100%) control compounds and represented as % of autophagy induction. […] The impact of autophagy induction on cells is complex and depends on the affected target. As such, the magnitude of a phenotype may not be equally mirrored in the %-value of autophagy induction and vice versa. The dynamics of the induction may indicate the mode of activation: e.g. activation via phosphorylation or a signaling cascade may occur fast, while activation via transcription factors may take considerably longer. […] Of note, treatment concentrations may be sub-optimal for specific compounds, leading to false negative annotations.; format: functional, Homo sapiens; details: Compound Concentration 0.5 uM, Timepoint 36 hours, Culturing Media DMEM/F12 (1:1), 1 % Penicillin/Streptomycin, 10% Fetal bovin serum Add-On: No, Screening Media Control DMEM/F12 (1:1), Screening Media Samples DMEM/F12 (1:1)
Under this convention, true (1) denotes autophagy induction strictly below -10% and false (0) denotes autophagy induction at or above -10%.

See these solved cases before continuing.
- MOLECULE: "COc1ccnc(N2CCC3(CCCN(Cc4c[nH]c5ccccc45)C3=O)CC2)n1"
  CLASS_ASSIGNMENT: "true (1)"
- MOLECULE: "Cc1nnn(-c2ccc(-c3ccc(C4(C(=O)O)CC4)cc3)cc2)c1NC(=O)O[C@H](C)c1ccccc1"
  CLASS_ASSIGNMENT: "true (1)"
- MOLECULE: "O=C(O)C1CN(Cc2ccc(-c3nc4cc(Cc5ccccc5F)ccc4s3)c(F)c2)C1"
  CLASS_ASSIGNMENT: "false (0)"

Please let me know if N#Cc1cccc(C(=O)Nc2cc(-c3ccccc3)nn2-c2ccccc2)c1 shows autophagy induction below -10%.
false (0)

Please let me know if Cc1c(P(=S)(c2ccccc2)c2ccccc2)n2ccccc2[n+]1C/C=C/c1ccccc1.[Br-] shows autophagy induction below -10%.
true (1)

Please let me know if CC(C)NCC(O)c1ccc(N)c(C#N)c1 (stereo not given) shows autophagy induction below -10%.
false (0)

Please let me know if CSc1ccc(C(=O)N[C@@H]2CCCC[C@@H]2NC(=O)CNC(=O)c2cc(C(F)(F)F)ccc2NC(=O)NC(C)C)cc1 shows autophagy induction below -10%.
true (1)

Please let me know if O=C1N/C(=N/c2ccccc2F)S/C1=C\c1ccc(C(=O)O)cc1 shows autophagy induction below -10%.
true (1)

Please let me know if CC(C)NC(=O)c1ccc(C#Cc2ccncc2)cn1 shows autophagy induction below -10%.
true (1)

Please let me know if CN(C(=O)Cc1ccc(Cl)c(Cl)c1)C(CN1CCCC1)c1cccc(OCC(=O)O)c1.Cl (stereo not given) shows autophagy induction below -10%.
true (1)
